testedOn: P. falciparum apicoplast DNA polymerase (Pf-apPOL) (Plasmodium falciparum, UniProt Q8ILY1)
Sequence (Q8ILY1 entry or part of it): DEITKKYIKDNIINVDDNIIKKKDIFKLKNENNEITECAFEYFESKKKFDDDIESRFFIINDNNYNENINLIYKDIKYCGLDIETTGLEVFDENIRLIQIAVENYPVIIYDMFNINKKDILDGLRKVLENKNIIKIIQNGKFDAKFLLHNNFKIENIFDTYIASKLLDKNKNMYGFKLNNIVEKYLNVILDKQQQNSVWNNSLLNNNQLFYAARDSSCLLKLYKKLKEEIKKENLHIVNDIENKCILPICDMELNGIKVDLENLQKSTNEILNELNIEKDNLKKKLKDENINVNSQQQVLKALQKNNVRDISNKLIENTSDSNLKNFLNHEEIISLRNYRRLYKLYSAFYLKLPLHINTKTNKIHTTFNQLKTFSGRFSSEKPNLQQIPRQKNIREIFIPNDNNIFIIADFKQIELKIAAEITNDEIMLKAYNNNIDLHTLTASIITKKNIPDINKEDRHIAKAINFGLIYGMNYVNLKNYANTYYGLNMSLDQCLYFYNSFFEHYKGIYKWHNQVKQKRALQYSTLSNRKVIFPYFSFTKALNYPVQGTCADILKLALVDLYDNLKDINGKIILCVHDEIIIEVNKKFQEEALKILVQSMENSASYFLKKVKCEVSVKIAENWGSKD
testDetails: Fluorescence-based high-throughput DNA polymerase assay (molecular beacon), primary screen and dose-response;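 also: test concentration in µM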
Format: biochemical
conditionLabel: DRC-1; 180'; concentration 40
experimentalReadout: % inhibition apPOL 180' (%)
Write down the numeric answer in % and omit the unit.

Problem: Could you share which % inhibition apPOL 180' value was measured for CC(C)(C)c1cc(C(=O)C(C#N)=NNc2cccc(Cl)c2)no1 [Molecule 98] ?
Result: 79.4059

Problem: Do the same for CC1(C)CC(=O)C2=C(C1)OC1=C(C(=O)CC(C)(C)C1)C2c1ccc(O)cc1 [KU0194226] please
Result: 67.9328

Problem: Also, COc1ccc(-c2n[nH]cc2Oc2ccc(Cl)cc2)c(O)c1 [KU0029837] please.
Result: 62.2191

Problem: Can you handle O=C(CSc1nnc(-c2ccncc2)[nH]1)c1ccc(O)c(O)c1 [Molecule 89] next?
Result: 78.119

Problem: What about this compound? Cc1cccc(-c2nnc3ccc(NS(=O)(=O)c4ccc(C)c(C)c4)nn23)c1 [Molecule 40]
Result: 67.3017

Problem: // repeat for CSC1=C(C#N)C(=C(C#N)C#N)NC(c2ccccc2)=N1 [Molecule 2, CSc1nc([nH]c(=C(C#N)C#N)c1C#N)c1ccccc1] and report
Result: 92.4303

Problem: // repeat for COc1ccc(S(=O)(=O)/N=C2\NC(=O)/C(=C3\C(=O)Nc4ccc([N+](=O)[O-])cc43)S2)cc1 [KU0054985] and report
Result: 94.1836

Problem: Follow-up item: CCOC(=O)C(NCc1ccco1)(NC(=O)c1ccco1)C(F)(F)F (stereo not shown) [KU0276119]
Result: 15.7005

Problem: Entry O=C(c1c[nH]c2ncccc12)N1CCCC1 [Molecule 63, O=C(c1c[nH]c2c1cccn2)N1CCCC1] please
Result: 33.3219

Problem: Record: CC(NC(=O)Cc1cc(=O)[nH]c(SCc2cccc(Cl)c2)n1)c1ccccc1 (stereo not shown) [Molecule 67]
Result: 18.891

Problem: // next record CCSc1nnc(NC(=O)Cc2csc(NC(=O)c3cnccn3)n2)s1 [Molecule 79]
Result: 8.736

Problem: Continue with CCN1C(=O)C(=Cc2cccc(OC)c2O)SC1=S [Molecule 78, CCN1C(=S)SC(=Cc2cccc(c2O)OC)C1=O]
Result: 51.4318

Problem: What would you report for O=C(Cn1ccc2c(=O)[nH]ccc21)Nc1cc(F)ccc1F [Molecule 42, O=C(Cn1ccc2c1cc[nH]c2=O)Nc1cc(F)ccc1F] ?
Result: 57.1907

Problem: What about this compound? Cc1ccc(-n2nnc(C(=O)O)c2-c2ccccn2)c(F)c1 [Molecule 54, Cc1ccc(c(c1)F)n1nnc(c1c1ccccn1)C(=O)O]
Result: 53.298

Problem: For COc1ccc(C=C2Oc3c(ccc4c3CN(c3ccc5c(c3)OCO5)CO4)C2=O)cc1OC [KU0199426] then?
Result: 79.6981

Problem: Now the compound O=C(Nc1ccc2c(c1)Cc1cc(NC(=O)c3ccco3)ccc1-2)c1ccco1 [KU0038977]
Result: 47.3942

Problem: Try NC(=O)c1cc[n+](CC2=C(C(=O)[O-])N3C(=O)[C@@H](NC(=O)[C@@H](c4ccccc4)S(=O)(=O)[O-])[C@H]3SC2)cc1.[Na+] [Molecule 9] next.
Result: 96.7618

Problem: Let us now turn to CC1=NNC(=O)C1Oc1ccc(Cl)cc1Cl (stereo not shown) [KU0265591]
Result: 27.6068

Problem: Next entry: CCOc1cccc2cc(C(=O)Nc3nnc(-c4ccno4)o3)oc12 [Molecule 28, CCOc1cccc2c1oc(c2)C(=O)Nc1nnc(o1)c1ccno1]
Result: 65.9166

Problem: Try the compound COc1cccc(C(=O)N2CCc3c(nc4cc(-c5ccccc5)[nH]n4c3=O)C2)c1OC [Molecule 22]
Result: 73

Problem: Try O=C(Nc1cccc(Cl)c1)Nc1nnc(-c2ccncc2)s1 [KU0022348] next.
Result: 80.4807

Problem: Next up: O=C(Nc1cccc(C(=O)Nc2ccc(S(=O)(=O)[O-])c3cc(S(=O)(=O)[O-])cc(S(=O)(=O)[O-])c23)c1)Nc1cccc(C(=O)Nc2ccc(S(=O)(=O)[O-])c3cc(S(=O)(=O)[O-])cc(S(=O)(=O)[O-])c23)c1.[Na+].[Na+].[Na+].[Na+].[Na+].[Na+] [Molecule 39]
Result: 87.2271

Problem: Another: O=c1[nH]c2ccc(Br)cc2c(-c2ccccc2)c1C1=NNC(c2ccco2)C1 (stereo not shown) [KU0045540]
Result: 67.9853

Problem: Now the compound CN(C)C=CC(=O)c1ccccn1 [Molecule 64, CN(C=CC(=O)c1ccccn1)C]
Result: 39.455

Problem: Moving on to the next compound: COc1ccc(-c2c(C(F)(F)F)nn3c(=O)cc(-c4cccc([N+](=O)[O-])c4)[nH]c23)cc1 [Molecule 16]
Result: 96.7933

Problem: Query O=C(Cc1cc(=O)[nH]c(SCc2ccccc2)n1)Nc1ccc2c(c1)OCO2 [Molecule 46] next
Result: 61.8193

Problem: Same question for CN(C)S(=O)(=O)Oc1ccc(-c2noc(-c3ccc(Oc4cc(Cl)cc(Cl)c4)o3)n2)cc1 [KU0263859] please.
Result: 58.5688

Problem: Proceed to O=C(Nc1c2c(nn1-c1ccc(Oc3ccccc3)cc1)CSC2)c1ccco1 [KU0055927]
Result: 72.0227

Problem: Same question for CCC(C)NC(=O)c1cc(NC(C)=O)cc2nc(C)ccc12 (stereo not shown) [KU0206314] please.
Result: 37.6309

Problem: What do we get for CCCCc1ccc(NC(=O)CSc2nc(O)c(C#N)c(C3CCCCC3)n2)c(C)c1 [Molecule 8] ?
Result: 95.0497

Problem: Same for COc1ccc(-c2cc(=O)c3cc(O)ccc3o2)cc1OC [KU0193655]
Result: 58.5037

###

testedOn: P. falciparum apicoplast DNA polymerase (Pf-apPOL) (Plasmodium falciparum, UniProt Q8ILY1)
testDetails: Fluorescence-based high-throughput DNA polymerase assay (molecular beacon), primary screen and dose-response;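 also: test concentration in µM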
Assay type: biochemical
conditionLabel: DRC-1; 180'; concentration 2.5
experimentalReadout: % inhibition apPOL 180' (%)
Report only the number, with the unit % understood.

Problem: Request body: readout % inhibition apPOL 180', system P. falciparum apicoplast DNA polymerase (Pf-apPOL) (Plasmodium falciparum, UniProt Q8ILY1), query COc1cc(Cl)c(C)cc1NC(=O)Cn1ccc2c(=O)[nH]ccc21 . Return the value.
Result: -6.054

Problem: NS(=O)(=O)c1ccc(NC(=O)c2ccc(N3C(=O)CCC3=O)cc2)cc1 ?
Result: -7.42

Problem: Proceed to CCCCc1ccc(NC(=O)CSc2nc(O)c(C#N)c(C3CCCCC3)n2)c(C)c1
Result: 1.158

Problem: # repeat for COc1ccc(-c2cc3nc4c(c(=O)n3[nH]2)CCN(C(=O)CCc2ccccc2)C4)cc1
Result: -7

Problem: Cl.NC(CO)C(=O)NNCc1ccc(O)c(O)c1O (centres unmarked) ?
Result: -3.278

###

testedOn: bacteriophage T4 DNA polymerase (Enterobacteria phage T4, UniProt P04415)
Construct: made in house
Sequence (P04415 whole entry): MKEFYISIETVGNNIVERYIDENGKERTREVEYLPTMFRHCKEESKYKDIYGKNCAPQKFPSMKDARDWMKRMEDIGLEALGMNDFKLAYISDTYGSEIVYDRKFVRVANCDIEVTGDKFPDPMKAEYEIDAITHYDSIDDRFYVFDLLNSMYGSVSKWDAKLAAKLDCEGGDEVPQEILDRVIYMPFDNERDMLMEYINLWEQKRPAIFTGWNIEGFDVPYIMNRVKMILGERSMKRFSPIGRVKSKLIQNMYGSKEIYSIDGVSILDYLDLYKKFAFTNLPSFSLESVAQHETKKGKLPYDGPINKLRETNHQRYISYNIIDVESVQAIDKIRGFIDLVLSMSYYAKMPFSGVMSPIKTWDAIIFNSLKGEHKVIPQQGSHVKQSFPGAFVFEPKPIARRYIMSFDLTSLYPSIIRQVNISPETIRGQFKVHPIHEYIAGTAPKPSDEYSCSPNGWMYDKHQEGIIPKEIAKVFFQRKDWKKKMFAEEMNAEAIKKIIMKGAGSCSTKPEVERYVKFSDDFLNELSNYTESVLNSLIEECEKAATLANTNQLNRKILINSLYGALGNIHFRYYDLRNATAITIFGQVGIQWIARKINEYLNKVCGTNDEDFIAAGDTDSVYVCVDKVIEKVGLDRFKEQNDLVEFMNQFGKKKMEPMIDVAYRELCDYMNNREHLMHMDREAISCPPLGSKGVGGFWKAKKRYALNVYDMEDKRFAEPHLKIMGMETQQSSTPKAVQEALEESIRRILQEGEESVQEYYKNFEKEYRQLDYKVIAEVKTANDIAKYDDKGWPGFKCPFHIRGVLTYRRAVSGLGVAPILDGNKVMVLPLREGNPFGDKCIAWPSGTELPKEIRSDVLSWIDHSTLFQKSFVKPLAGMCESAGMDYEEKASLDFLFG
testDetails: Counter-screen against bacteriophage T4 DNA polymerase
Type: biochemical
conditionLabel: DRC-2; read at 180'; concentration 10
experimentalReadout: % inhibition T4 180' 10 (%)
Give just the numeric value; % need not be written.

Problem: # get_value(readout='% inhibition T4 180' 10', item= COc1ccc(C2CC(c3ccc(Cl)cc3Cl)Nc3nc(N)nn32)cc1OC (stereo not shown) )
Result: -5

Problem: Try this molecule next: Cc1ccsc1Cn1c(C)ccc1C
Result: 1.9

Problem: Try the molecule C#CC(C=CC)OC(=O)c1ccccc1C(=O)O (stereo not shown)
Result: -7

Problem: Cool, now CCCc1ccc(Oc2coc3cc(OC)ccc3c2=O)cc1
Result: -5

Problem: What do we get for Cc1cccc(-c2noc(C(=O)NNC(=O)C(Cl)(Cl)Cl)n2)c1 ?
Result: -9

Problem: Repeat for the following molecule: CC(=O)Nc1cc(C(=O)c2cccs2)nn(-c2ccc(Cl)cc2)c1=O
Result: 0.174

Problem: How about this molecule: Cn1nc(-c2nc(-c3ccccc3)no2)c2c1CCN(C(=O)Cc1cccs1)C2
Result: 13

Problem: What about CC(=O)OCC1=C(C(=O)[O-])N2C(=O)[C@@H](NC(=O)Cc3cccs3)[C@H]2SC1.[Na+] ?
Result: 6.41

Problem: Try this molecule too: Cc1nc(C)c2c(n1)N(CC1CCCCC1)C(=O)CC2
Result: 3

Problem: Note, next up: COc1ccc(/C=C/c2cc(C(=O)O)c3ccccc3n2)cc1
Result: 10

Problem: // repeat for N#Cc1c(O)nc(N2CCCCC2)nc1-c1ccc2c(c1)OCO2 and report
Result: 4

Problem: Now try COc1ccccc1CC(=O)N1CCc2c(nc3cc(-c4ccccc4Cl)[nH]n3c2=O)C1 .
Result: -28

Problem: # repeat for Cn1nc(-c2nnc(-c3ccccc3F)o2)c2c1CCN(C(=O)c1ccccc1Cl)C2
Result: -5

Problem: Entry O=C(CCc1csc(NC(=O)Nc2ccccc2)n1)Nc1nc2ccccc2s1 please
Result: 3

Problem: # repeat for Cc1ccc(N2CCC(NC(=O)Cc3cccs3)C2=O)cc1C (stereo not shown)
Result: 18

Problem: Cool, now O=C(c1ccccc1)N1CCc2c(nc3cc(-c4ccccc4)[nH]n3c2=O)C1
Result: -13
